# credit: patent US20230135729A1

tested on: spores of ATCC BBA1870 strain; assay: Inhibition of germination of C. difficile spores (MIC), strain ATCC BBA1870; format: cell-based; conditions: Clostridioides difficile, ATCCBBA1870STRAIN, 1 h; strain 1870; sodium taurocholate as germinant, BHIS medium, 37° C., OD580 for 60 min; read-out: MIC (minimum concentration that completely inhibits spore germination)
measured.property: MIC

[
  {
    "structure.smiles": "CC[C@H](NC(=O)C[C@@H](C)[C@H]1CC[C@H]2[C@@H]3[C@H](O)C[C@@H]4CC(=O)CC[C@]4(C)[C@H]3CC[C@]12C)c1ccc(S(=O)(=O)O)s1",
    "experimental.value": "> 256 µM"
  },
  {
    "structure.smiles": "CC(C)[C@H](NC(=O)C[C@@H](C)[C@H]1CC[C@H]2[C@@H]3[C@H](O)[C@H](O)[C@@H]4C[C@H](O)CC[C@]4(C)[C@H]3CC[C@]12C)c1ccc(Br)s1",
    "experimental.value": "> 256 µM"
  },
  {
    "structure.smiles": "C[C@H](NC(=O)C[C@@H](C)[C@H]1CC[C@H]2[C@@H]3C(=O)C[C@@H]4CC(=O)CC[C@]4(C)[C@H]3CC[C@]12C)c1ccccc1",
    "experimental.value": "> 256 µM"
  }
]

---

system: spores of ATCC 630 strain; assay: Inhibition of germination of C. difficile spores (MIC), strain ATCC 630; format: cell-based; settings: Clostridioides difficile, ATCC630, 1 h; strain 630; sodium taurocholate as germinant, BHIS medium, 37° C., OD580 for 60 min; read-out: MIC (minimum concentration that completely inhibits spore germination)

[
  {
    "compound": "C[C@H](CC(=O)NCc1cccs1)[C@H]1CC[C@H]2[C@@H]3C(=O)C[C@@H]4C[C@H](O)CC[C@]4(C)[C@H]3C[C@H](O)[C@]12C",
    "unit.annotation": "µM",
    "qualifier.symbol": "=",
    "MIC": 32
  },
  {
    "compound": "C[C@H](CC(=O)NCc1ccco1)[C@H]1CC[C@H]2[C@@H]3[C@H](O)C[C@@H]4C[C@H](O)CC[C@]4(C)[C@H]3C[C@H](O)[C@]12C",
    "unit.annotation": "µM",
    "qualifier.symbol": "=",
    "MIC": 32
  },
  {
    "compound": "CCCC(NC(=O)C[C@@H](C)[C@H]1CC[C@H]2[C@@H]3C(=O)C[C@@H]4CC(=O)CC[C@]4(C)[C@H]3CC[C@]12C)c1cccs1 (stereo partly shown)",
    "unit.annotation": "µM",
    "qualifier.symbol": "=",
    "MIC": 0.5
  },
  {
    "compound": "CC[C@@H](NC(=O)C[C@@H](C)[C@H]1CC[C@H]2[C@@H]3[C@H](OP(=O)(O)O)C[C@@H]4CC(=O)CC[C@]4(C)[C@H]3CC[C@]12C)c1ccc(Cl)s1",
    "unit.annotation": "µM",
    "qualifier.symbol": "=",
    "MIC": 64
  },
  {
    "compound": "CO[C@@H]1CC[C@@]2(C)[C@@H](C1)C[C@@H](O)[C@@H]1[C@@H]2CC[C@]2(C)[C@@H]([C@H](C)CC(=O)N[C@@H](c3ccc(Cl)s3)C(C)C)CC[C@@H]12",
    "unit.annotation": "µM",
    "qualifier.symbol": "=",
    "MIC": 128
  },
  {
    "compound": "CC(C)[C@H](NC(=O)C[C@@H](C)[C@H]1CC[C@H]2[C@@H]3C(=O)C[C@@H]4CC(=O)CC[C@]4(C)[C@H]3CC[C@]12C)c1ccc(Br)s1",
    "unit.annotation": "µM",
    "qualifier.symbol": "=",
    "MIC": 4
  },
  {
    "compound": "CC(C)[C@@H](NC(=O)C[C@@H](C)[C@H]1CC[C@H]2[C@@H]3[C@H](O)C[C@@H]4CC(=O)CC[C@]4(C)[C@H]3CC[C@]12C)c1cccs1",
    "unit.annotation": "µM",
    "qualifier.symbol": "=",
    "MIC": 1
  },
  {
    "compound": "CC[C@@H](NC(=O)C[C@@H](C)[C@H]1CC[C@H]2[C@@H]3[C@H](OC(C)=O)CC4=CC(=O)C=C[C@]4(C)[C@H]3CC[C@]12C)c1ccc(Cl)s1",
    "unit.annotation": "µM",
    "qualifier.symbol": "=",
    "MIC": 0.25
  },
  {
    "compound": "CC[C@@H](NC(=O)C[C@@H](C)[C@H]1CC[C@H]2[C@@H]3C(=O)CC4=CC(=O)C=C[C@]4(C)[C@H]3CC[C@]12C)c1ccc(Cl)s1",
    "unit.annotation": "µM",
    "qualifier.symbol": "=",
    "MIC": 0.5
  },
  {
    "compound": "C[C@H](CC(=O)NCc1ccccn1)[C@H]1CC[C@H]2[C@@H]3[C@H](O)C[C@@H]4C[C@H](O)CC[C@]4(C)[C@H]3CC[C@]12C",
    "unit.annotation": "µM",
    "qualifier.symbol": "=",
    "MIC": 64
  },
  {
    "compound": "CC[C@H](NC(=O)C[C@@H](C)[C@H]1CC[C@H]2[C@@H]3[C@H](OS(=O)(=O)O)C[C@@H]4CC(=O)CC[C@]4(C)[C@H]3CC[C@]12C)c1ccc(Cl)s1",
    "unit.annotation": "µM",
    "qualifier.symbol": ">",
    "MIC": 256
  },
  {
    "compound": "CC(C)C(NC(=O)C[C@@H](C)[C@H]1CC[C@H]2[C@@H]3[C@H](O)C[C@@H]4CC(=O)CC[C@]4(C)[C@H]3CC[C@]12C)c1ccc(Br)s1 (stereo partly shown)",
    "unit.annotation": "µM",
    "qualifier.symbol": "=",
    "MIC": 0.5
  },
  {
    "compound": "CC[C@H](NC(=O)C[C@@H](C)[C@H]1CC[C@H]2[C@@H]3[C@H](O)C[C@@H]4CC(=O)CC[C@]4(C)[C@H]3CC[C@]12C)c1cccs1",
    "unit.annotation": "µM",
    "qualifier.symbol": "=",
    "MIC": 256
  }
]

---

Tested on: spores of ATCC 630 strain
Experiment: Inhibition of germination of C. difficile spores (MIC), strain ATCC 630
Assay type: cell-based
Settings: Clostridioides difficile, ATCC630, 1 h; strain 630; sodium taurocholate as germinant, BHIS medium, 37° C., OD580 for 60 min; read-out: MIC (minimum concentration that completely inhibits spore germination)
Protocol: According to a method disclosed in “The Journal of Infectious Diseases. 2013; 207: 1498-504”, spores of ATCC BBA1870, ATCC 43255 and ATCC 630 strains were obtained by culture and purification, and stored at 4° C. Spore preparation: the C. difficile spores stored at 4° C. were heat-activated for 30 min at 65° C., centrifuged at 9,400 g for 2 min, and washed three times to remove any self-germinating spores. […]
The entries below are paired with their reported MIC.

[
  {
    "compound": "CC[C@@H](NC(=O)C[C@@H](C)[C@H]1CC[C@H]2[C@@H]3[C@H](O)CC4=CC(=O)C=C[C@]4(C)[C@H]3CC[C@]12C)c1ccc(Br)s1",
    "MIC / µM": 0.5
  },
  {
    "compound": "CC(C)[C@@H](NC(=O)C[C@@H](C)[C@H]1CC[C@H]2[C@@H]3[C@H](O)CC4=CC(=O)C=C[C@]4(C)[C@H]3CC[C@]12C)c1ccc(Br)s1",
    "MIC / µM": 0.5
  },
  {
    "compound": "CC(=O)O[C@@H]1C[C@@H]2CC(=O)CC[C@]2(C)[C@H]2CC[C@]3(C)[C@@H]([C@H](C)CC(=O)N[C@@H](c4ccc(Br)s4)C(C)C)CC[C@H]3[C@H]12",
    "MIC / µM": 0.5
  },
  {
    "compound": "CC(C)C(NC(=O)C[C@@H](C)[C@H]1CC[C@H]2[C@@H]3C(=O)C[C@@H]4CC(=O)CC[C@]4(C)[C@H]3CC[C@]12C)c1ccc(Cl)s1 (stereo partly shown)",
    "MIC / µM": 0.5
  }
]

---

test system: spores of ATCC BBA1870 strain; assay: Inhibition of germination of C. difficile spores (MIC), strain ATCC BBA1870; assay type: cell-based; conditions: Clostridioides difficile, ATCCBBA1870STRAIN, 1 h; strain 1870; sodium taurocholate as germinant, BHIS medium, 37° C., OD580 for 60 min; read-out: MIC (minimum concentration that completely inhibits spore germination)
Reported MIC values for a set of compounds

[
  {
    "compound": "CC(C)[C@H](NC(=O)C[C@@H](C)[C@H]1CC[C@H]2[C@@H]3C(=O)C[C@@H]4CC(=O)CC[C@]4(C)[C@H]3CC[C@]12C)c1cccs1",
    "MIC": "> 256 µM"
  },
  {
    "compound": "C[C@H](CC(=O)NC(c1cccs1)C1CCCCC1)[C@H]1CC[C@H]2[C@@H]3C(=O)C[C@@H]4CC(=O)CC[C@]4(C)[C@H]3CC[C@]12C (stereo partly drawn)",
    "MIC": "> 256 µM"
  },
  {
    "compound": "C[C@H](CC(=O)NC(C(=O)O)c1ccccc1)[C@H]1CC[C@H]2[C@@H]3C(=O)C[C@@H]4CC(=O)CC[C@]4(C)[C@H]3CC[C@]12C (stereo partly drawn)",
    "MIC": "> 256 µM"
  }
]
